These records show IC50 for Disintegrin and metalloproteinase domain-containing protein 17 (Homo sapiens).
quantity_kind: IC50 (nM)

compound | quantity_kind | experimental_value
COc1ccc(S(=O)(=O)N(C)c2c(C(=O)NO)cc(Br)cc2C2CCN(C)CC2)cc1 | IC50 | 26
CCCCOc1ccc(S(=O)(=O)N(C)c2c(C)cc(Br)cc2C(=O)NO)cc1 | IC50 | 67
Cc1cc(Br)cc(C(=O)NO)c1N(C)S(=O)(=O)c1ccc(OCc2cccnc2)cc1 | IC50 | 28
CC#CCOc1ccc(S(=O)(=O)N(C)c2c(C(=O)NO)cc(Br)cc2C2CCN(C)CC2)cc1 | IC50 | 25
CC#CCOc1ccc(S(=O)(=O)N(C)c2ccccc2C(=O)NO)cc1 | IC50 | 27
CC#CCOc1ccc(S(=O)(=O)N(C)c2c(C)cccc2C(=O)NO)cc1 | IC50 | 28
CC#CCOc1ccc(S(=O)(=O)Nc2c(C)cccc2C(=O)NO)cc1 | IC50 | 84
CC#CCOc1ccc(S(=O)(=O)N(C)c2c(C(=O)NO)cc(-c3ccccc3)cc2C2CCN(C)CC2)cc1 | IC50 | 42

* * *

Reported inhibition at 3 µM is given for each of the following compounds.
Test system: THP-1
Experiment: Inhibition of LPS-stimulated TNF-alpha production in THP-1 cells at a concentration of 3 uM
Format: functional
Conditions: Homo sapiens

compound | inhibition at 3 µM / %
CC#CCOc1ccc(S(=O)(=O)Nc2c(C)cccc2C(=O)NO)cc1 | 7
Cc1cc(Br)cc(C(=O)NO)c1N(C)S(=O)(=O)c1ccc(OCc2cccnc2)cc1 | 9
CC#CCOc1ccc(S(=O)(=O)N(C)c2c(C)cccc2C(=O)NO)cc1 | 55

* * *

Target: Collagenase 3 (Homo sapiens, UniProt P45452)
Experiment: Inhibition of Matrix metalloprotease-13 activity
Reported IC50 is given for each of the following compounds.

compound | test_system | scale_unit | IC50
COc1ccc(S(=O)(=O)N(C)c2c(C(=O)NO)cc(Br)cc2C2CCN(C)CC2)cc1 | Collagenase 3 (Homo sapiens, UniProt P45452) | nM | 5
CC#CCOc1ccc(S(=O)(=O)N(C)c2c(C(=O)NO)cc(-c3ccccc3)cc2C2CCN(C)CC2)cc1 | Collagenase 3 (Homo sapiens, UniProt P45452) | nM | 47
CC#CCOc1ccc(S(=O)(=O)N(C)c2c(C)cccc2C(=O)NO)cc1 | Collagenase 3 (Homo sapiens, UniProt P45452) | nM | 416

* * *

Reported inhibition is given for each of the following compounds.
Molecular target: Interstitial collagenase (Homo sapiens) (UniProt P03956)
Sequence (whole entry): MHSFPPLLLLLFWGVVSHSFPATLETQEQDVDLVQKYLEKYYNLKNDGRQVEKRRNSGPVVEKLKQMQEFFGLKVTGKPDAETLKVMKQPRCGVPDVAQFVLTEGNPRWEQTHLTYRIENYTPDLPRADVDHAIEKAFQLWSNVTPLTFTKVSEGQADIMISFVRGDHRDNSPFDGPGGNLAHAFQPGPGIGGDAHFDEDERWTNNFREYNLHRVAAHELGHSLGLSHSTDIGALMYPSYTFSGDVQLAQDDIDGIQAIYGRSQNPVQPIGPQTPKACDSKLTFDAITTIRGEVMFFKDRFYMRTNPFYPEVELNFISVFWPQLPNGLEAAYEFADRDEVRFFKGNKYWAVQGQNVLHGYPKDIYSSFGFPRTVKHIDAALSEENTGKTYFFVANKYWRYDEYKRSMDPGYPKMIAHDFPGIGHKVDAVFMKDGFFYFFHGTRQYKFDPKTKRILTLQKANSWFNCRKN
Experiment: Inhibition of Matrix metalloprotease-1 at 10 uM

compound | inhibition (%)
Cc1cc(Br)cc(C(=O)NO)c1N(C)S(=O)(=O)c1ccc(OCc2cccnc2)cc1 | 42
Cc1cc(Br)cc(C(=O)NO)c1N(C)S(=O)(=O)c1ccc(OCC#CCNCCCN(C)C)cc1 | 32
CNCC#CCOc1ccc(S(=O)(=O)N(C)c2c(C)cc(Br)cc2C(=O)NO)cc1 | 26
CC#CCOc1ccc(S(=O)(=O)N(C)c2c(C)cccc2C(=O)NO)cc1 | 85
CCN(CC)CC#CCOc1ccc(S(=O)(=O)N(C)c2c(C)cc(Br)cc2C(=O)NO)cc1 | 21
CC#CCOc1ccc(S(=O)(=O)Nc2c(C)cccc2C(=O)NO)cc1 | 6
CC#CCOc1ccc(S(=O)(=O)N(C)c2ccccc2C(=O)NO)cc1 | 35
